Molecular target: T1, GFP-9S library array, motif 4 ND N98C;D124R (synthetic construct, N98C;D124R)
T1 chain: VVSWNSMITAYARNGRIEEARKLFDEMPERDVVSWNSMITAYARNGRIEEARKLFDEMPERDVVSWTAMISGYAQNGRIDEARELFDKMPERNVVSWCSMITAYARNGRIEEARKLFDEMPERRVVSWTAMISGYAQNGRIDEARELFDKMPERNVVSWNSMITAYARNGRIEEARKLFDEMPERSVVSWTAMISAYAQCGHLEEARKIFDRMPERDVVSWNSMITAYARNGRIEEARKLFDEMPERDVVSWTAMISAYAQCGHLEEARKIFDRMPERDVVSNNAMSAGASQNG
Assay: high-throughput RNA pulldown from lysate on Ni-NTA beads; HRP: 50 mM Tris pH 8, 150 mM NaCl, 1 mM beta-mercaptoethanol, 50 ug/ml BSA, 3 ug/ml yeast RNA, 0.5% heparin; ITC and FP: Tris pH 8, 200 mM KCl, 5% glycerol; MST: 50 mM Tris pH 8, 200 mM NaCl, 1 mM DTT, BSA, heparin, 0.05% Tween 20
Settings: tags: N-terminal His-eGFP; label: 5' IRDye 800CW
measured_property: Kd (nM)
Entry rule: numbers only, all in nM.

Query string: Recorded Kd for AUUAAACGUGA (ssRNA) [IR-rpoA-A] , please?
Result string: 44.5

Query string: Look up Kd for this binder: AUUAUACGUGA (ssRNA) [IR-rpoA-U]
Result string: 96.8

Recorded values, source paper PMC8809517.
